- target-system: human recombinant OX2 (hOX2) receptor expressed in CHO cells (Homo sapiens)
- Sequence (O43614 1-444): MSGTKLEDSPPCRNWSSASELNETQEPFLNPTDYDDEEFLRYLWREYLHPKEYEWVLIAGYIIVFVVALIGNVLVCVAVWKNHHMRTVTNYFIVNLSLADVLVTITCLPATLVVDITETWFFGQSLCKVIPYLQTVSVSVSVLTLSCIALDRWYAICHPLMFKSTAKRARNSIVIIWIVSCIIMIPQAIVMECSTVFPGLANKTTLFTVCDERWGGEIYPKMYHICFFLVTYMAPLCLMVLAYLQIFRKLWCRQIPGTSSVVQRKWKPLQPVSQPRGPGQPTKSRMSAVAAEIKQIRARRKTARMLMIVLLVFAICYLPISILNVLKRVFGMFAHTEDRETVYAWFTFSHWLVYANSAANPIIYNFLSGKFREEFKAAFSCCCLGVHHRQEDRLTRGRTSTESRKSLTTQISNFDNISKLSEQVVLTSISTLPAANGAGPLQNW
- assay-notes: IP-1 accumulation assay (IP-One HTRF) in hOX2-CHO cells
- reported-conditions: 60 min at 37° C., 11 points CRC, response as % of maximal OX-A response
pEC50: −log10 of the molar value.
measured-parameter: pEC50

| compound | measured-parameter | obs-value |
| --- | --- | --- |
| Cc1ccn(C(CNS(C)(=O)=O)CO[C@H]2CC[C@@H](c3ccccc3)CC2)c(=O)c1C (single isomer, unassigned; isomer 1) [Example 2n] | pEC50 | 6.00 to 7.00 |
| Cc1ccn(C(CNS(C)(=O)=O)CO[C@H]2CC[C@@H](c3ccccc3)CC2)n1 (stereo partly drawn) [Example 2aa] | pEC50 | < 5.00 |
| CCc1cccn(C(CNS(C)(=O)=O)CO[C@H]2CC[C@@H](c3ccccc3)CC2)c1=O (single isomer, unassigned; isomer 2) [Example 2b] | pEC50 | 6.00 to 7.00 |

====

- target-system: human recombinant OX2 (hOX2) receptor expressed in CHO cells (Homo sapiens, UniProt O43614)
- Construct: host or cells: CHO cells (hOX2-CHO)
- Sequence (O43614 1-444): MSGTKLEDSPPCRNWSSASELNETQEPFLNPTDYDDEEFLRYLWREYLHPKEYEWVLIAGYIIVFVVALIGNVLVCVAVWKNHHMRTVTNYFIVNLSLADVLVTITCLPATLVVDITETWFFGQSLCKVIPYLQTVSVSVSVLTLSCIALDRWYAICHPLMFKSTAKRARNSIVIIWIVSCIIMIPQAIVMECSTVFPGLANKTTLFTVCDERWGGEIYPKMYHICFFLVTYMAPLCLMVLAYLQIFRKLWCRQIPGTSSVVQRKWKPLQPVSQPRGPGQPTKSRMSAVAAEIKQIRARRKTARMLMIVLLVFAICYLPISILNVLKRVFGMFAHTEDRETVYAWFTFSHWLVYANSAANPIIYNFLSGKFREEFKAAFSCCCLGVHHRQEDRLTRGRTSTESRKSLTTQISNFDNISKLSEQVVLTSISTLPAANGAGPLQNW
- assay-notes: IP-1 accumulation assay (IP-One HTRF) in hOX2-CHO cells
- Assay type: cell-based
- reported-conditions: 60 min at 37° C., 11 points CRC, response as % of maximal OX-A response
Reported EC50 values follow for various compounds

| compound | EC50 |
| --- | --- |
| CS(=O)(=O)NCC(CO[C@H]1CC[C@@H](c2ccccc2)CC1)n1cccc(F)c1=O (single isomer, unassigned; isomer 2) [Example 2h] | > 10000 nM |
| Cc1cc(C)c(=O)n(C(CNS(=O)(=O)N(C)C)CO[C@H]2CC[C@@H](c3cccc(F)c3)CC2)c1 (single isomer, unassigned; isomer 1) [Example 2ar] | < 100 nM |
| Cc1cc(C)c(=O)n(C(CNS(C)(=O)=O)CO[C@H]2CC[C@@H](c3cccc(F)c3)CC2)c1 (single isomer, unassigned; isomer 2) [Example 2ag] | 1000 to 10000 nM |
| Cc1ccn(C(CNS(C)(=O)=O)CO[C@H]2CC[C@@H](c3ccccc3)CC2)c(=O)c1C (single isomer, unassigned; isomer 2) [Example 2o] | > 10000 nM |
| CS(=O)(=O)NCC(CO[C@H]1CC[C@@H](c2ccccc2)CC1)n1cccc(F)c1=O (some centres unmarked) [Example 2f] | 1000 to 10000 nM |
| Cc1ccc(=O)n(C(CNS(C)(=O)=O)CO[C@H]2CC[C@@H](c3ccccc3)CC2)c1 (some centres unmarked) [Example 2i] | 100 to 1000 nM |
| Cc1cc(C(CNS(C)(=O)=O)CO[C@H]2CC[C@@H](c3cccc(F)c3)CC2)c(=O)n(CC(F)F)c1 (some centres unmarked) | < 100 nM |
| Cc1cc(C(CNS(=O)(=O)N(C)C)CO[C@H]2CC[C@@H](c3cccc(F)c3)CC2)c(=O)n(C(F)F)c1 (some centres unmarked) [Example 5aa] | < 100 nM |
| CS(=O)(=O)NCC(CO[C@H]1CC[C@@H](c2ccccc2)CC1)n1cccc(C(F)(F)F)c1=O (some centres unmarked) | 1000 to 10000 nM |
| Cc1ccn(C(CNS(C)(=O)=O)CO[C@H]2CC[C@@H](c3ccccc3)CC2)c(=O)c1C (some centres unmarked) [Example 2m] | 100 to 1000 nM |
| Cc1cc(C)c(=O)n(C(CNS(=O)(=O)C2CC2)CO[C@H]2CC[C@@H](c3cccc(F)c3)CC2)c1 (single isomer, unassigned; isomer 2) [Example 2an] | 1000 to 10000 nM |

====

- target-system: human recombinant OX2 (hOX2) receptor expressed in CHO cells (Homo sapiens, UniProt O43614)
- Sequence (O43614 1-444): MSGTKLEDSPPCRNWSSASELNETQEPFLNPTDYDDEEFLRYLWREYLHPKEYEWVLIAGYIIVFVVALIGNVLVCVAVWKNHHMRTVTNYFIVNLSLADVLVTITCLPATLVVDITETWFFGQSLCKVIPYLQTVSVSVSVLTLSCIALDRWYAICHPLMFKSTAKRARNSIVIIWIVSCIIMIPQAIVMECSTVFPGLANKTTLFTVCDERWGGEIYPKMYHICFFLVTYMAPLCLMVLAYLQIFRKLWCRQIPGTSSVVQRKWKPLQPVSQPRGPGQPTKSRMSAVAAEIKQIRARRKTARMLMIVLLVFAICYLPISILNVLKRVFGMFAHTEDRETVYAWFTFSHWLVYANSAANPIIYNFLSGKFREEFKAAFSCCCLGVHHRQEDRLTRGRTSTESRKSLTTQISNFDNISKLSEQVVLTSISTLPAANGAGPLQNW
- assay-notes: IP-1 accumulation assay (IP-One HTRF) in hOX2-CHO cells
- reported-conditions: 60 min at 37° C., 11 points CRC, response as % of maximal OX-A response
pEC50: −log10 of the molar value.

| compound | pEC50 |
| --- | --- |
| Cc1cc(C(CNS(=O)(=O)N(C)C)CO[C@H]2CC[C@@H](c3cccc(F)c3)CC2)c(=O)n(C)c1 (single isomer, unassigned; isomer 1) [Example 5r] | > 7.00 |
| Cc1cc(C(CNS(C)(=O)=O)COC2CCN(c3ncc(F)cn3)CC2)c(=O)n(C)c1 (centres unmarked) | < 5.00 |
| Cc1cc(Br)cn(C(CNS(C)(=O)=O)CO[C@H]2CC[C@@H](c3ccccc3)CC2)c1=O (some centres unmarked) | 6.00 to 7.00 |
| CCC[C@H]1CC[C@@H](OCC(CNS(=O)(=O)N(C)C)n2cc(C)cc(C)c2=O)CC1 (some centres unmarked) | > 7.00 |
| Cc1cccn(C(CNS(C)(=O)=O)CO[C@H]2CC[C@@H](c3ccccc3)CC2)c1=O (some centres unmarked) [Example 1c] | 6.00 to 7.00 |
| CS(=O)(=O)NCC(CO[C@H]1CC[C@@H](c2ccccc2)CC1)n1cc(OC(F)F)ccc1=O (some centres unmarked) | 5.00 to 6.00 |
| Cc1cc(C)c(=O)n(C(CNS(C)(=O)=O)CO[C@H]2CC[C@@H](c3cccc(F)c3)CC2)c1 (single isomer, unassigned; isomer 1) [Example 2af] | > 7.00 |
| Cc1cc(C)c(=O)n(C(CNS(C)(=O)=O)CO[C@H]2CC[C@@H](c3ccccc3)CC2)c1 (single isomer, unassigned; isomer 1) [Example 2t] | > 7.00 |
| Cc1cccn(C(CNS(C)(=O)=O)CO[C@H]2CC[C@@H](c3ccccc3)CC2)c1=O (single isomer, unassigned; isomer 2) [Example 1e] | 6.00 to 7.00 |
| CS(=O)(=O)NCC(CO[C@H]1CC[C@@H](c2ccccc2)CC1)n1ccccc1=O (single isomer, unassigned; isomer 2) [Example 1b] | < 5.00 |
| Cc1cc(-n2cccn2)cn(C(CNS(C)(=O)=O)CO[C@H]2CC[C@@H](c3ccccc3)CC2)c1=O (some centres unmarked) | 6.00 to 7.00 |
| Cc1cccn(C(CO[C@H]2CC[C@@H](c3ccccc3)CC2)C(C)NS(C)(=O)=O)c1=O (single isomer, unassigned; isomer 4) [Example 3d] | 5.00 to 6.00 |
| Cc1cc(C(CNS(=O)(=O)CF)CO[C@H]2CC[C@@H](c3cccc(F)c3)CC2)c(=O)n(C)c1 (single isomer, unassigned; isomer 1) [Example 5n] | > 7.00 |
| Cc1cc(C)c(=O)n(C(CNS(C)(=O)=O)COC2CCC3(CCOC3)CC2)c1 (centres unmarked) | < 5.00 |
